system: MDA-MB-231; assay: Antiproliferative activity against human MDA-MB-231 cells measured after 72 hrs by MTT assay; assay type: functional, cell-based; settings: MDA-MB-231, 72 h
result-type: IC50 (µM)
Write it as a number; the unit µM goes unstated.

Query string: Record request: IC50 value, item `C[C@]12CC[C@H]3[C@@H](CCC4=CC(=O)CC[C@@]43C)[C@@H]1CC[C@@H]2C(=O)/C=C/c1ccc(F)cc1`
Result string: 2

---

tested on: SMMC-7721; assay: Antitumour activity against human SMMC7721 cells assessed as cell growth inhibition measured after 72 hrs by SRB assay; type: functional, cell-based; conditions: SMMC-7721, 72 h
result-type: IC50 (µM)
# unit: µM | format: bare number

Query string: Record request: IC50 value, item `COc1cc2c(cc1O)CC[C@@H]1[C@@H]2CC[C@]2(C)C(=O)/C(=C/c3ccc(F)cc3)C[C@@H]12`
Result string: 8.2

Query string: Consider the molecule `C[C@]12CC[C@@H]3c4cc(C(=O)/C=C/c5ccc(Cl)cc5)c(O)cc4CC[C@H]3[C@@H]1CC[C@@H]2O` and give its measured IC50.
Result string: 44.9

Query string: Could you share which IC50 value was measured for `COc1cc2c(cc1O)CC[C@@H]1[C@@H]2CC[C@]2(C)C(=O)/C(=C/c3ccc(Cl)cc3)C[C@@H]12` ?
Result string: 4.3

Query string: I am curious: what IC50 value has been reported for `COc1cc2c(cc1O)CC[C@@H]1[C@@H]2CC[C@]2(C)C(=O)/C(=C/c3ccc(Cl)cc3Cl)C[C@@H]12` ?
Result string: 1.7

Query string: Looking for the measured IC50 of `COc1cc2c(cc1O)CC[C@@H]1[C@@H]2CC[C@]2(C)C(=O)/C(=C/c3cccc(Cl)c3)C[C@@H]12` , can you help?
Result string: 16.9

Query string: Data request, read-out IC50, for `COc1cc2c(cc1O)CC[C@@H]1[C@@H]2CC[C@]2(C)C(=O)/C(=C/c3cccc([N+](=O)[O-])c3)C[C@@H]12`
Result string: 8.1

Query string: IC50 lookup needed for `COc1cc2c(cc1O)CC[C@@H]1[C@@H]2CC[C@]2(C)C(=O)/C(=C/c3ccc(S(C)(=O)=O)cc3)C[C@@H]12` , thanks.
Result string: 37.3

---

For each record, write down the corresponding pIC50.
system: SMMC-7721; assay: Antitumour activity against human SMMC7721 cells assessed as cell growth inhibition measured after 72 hrs by SRB assay; assay type: functional, cell-based; details: SMMC-7721, 72 h
In plain terms, pIC50 is the concentration in mol/L turned into minus its base-10 logarithm.

Query string: For `COc1cc2c(cc1O)CC[C@@H]1[C@@H]2CC[C@]2(C)C(=O)/C(=C/c3ccc(C)cc3)C[C@@H]12` , what is its reported pIC50?
Result string: 4.68

Query string: # pIC50 lookup, item COc1cc2c(cc1O)CC[C@@H]1[C@@H]2CC[C@]2(C)[C@@H](O)CC[C@@H]12 [2-METHOXYESTRADIOL]
Result string: 5.08

Query string: Given the entry `COc1cccc(/C=C/C(=O)c2cc3c(cc2O)CC[C@@H]2[C@@H]3CC[C@]3(C)[C@@H](O)CC[C@@H]23)c1` , report its measured pIC50.
Result string: 4.58

Query string: Find the recorded pIC50 belonging to `COc1cc2c(cc1O)CC[C@@H]1[C@@H]2CC[C@]2(C)C(=O)/C(=C/c3cc(OC)c(OC)c(OC)c3)C[C@@H]12` and report it.
Result string: 5.55

Query string: Returns the measured pIC50 for the input molecule. Input: `C[C@]12CC[C@@H]3c4cc(C(=O)/C=C/c5ccc(Cl)cc5Cl)c(O)cc4CC[C@H]3[C@@H]1CC[C@@H]2O`
Result string: 4.84

Query string: Give the measured pIC50 of `C[C@]12CC[C@@H]3c4cc(C(=O)/C=C/c5cccc(Cl)c5)c(O)cc4CC[C@H]3[C@@H]1CC[C@@H]2O` .
Result string: 5.20

Query string: Need pIC50 of `COc1cc2c(cc1O)CC[C@@H]1[C@@H]2CC[C@]2(C)C(=O)/C(=C/c3ccc(Br)cc3)C[C@@H]12` , thanks.
Result string: 7.00

Query string: # pIC50 lookup, item `COc1cc2c(cc1O)CC[C@@H]1[C@@H]2CC[C@]2(C)C(=O)/C(=C/c3ccccc3)C[C@@H]12`
Result string: 4.76

Query string: What pIC50 value was documented for this molecule, `COc1ccc(/C=C/C(=O)c2cc3c(cc2O)CC[C@@H]2[C@@H]3CC[C@]3(C)[C@@H](O)CC[C@@H]23)cc1` ?
Result string: 4.79

Query string: Requested field: pIC50. Item: `COc1ccccc1/C=C/C(=O)c1cc2c(cc1O)CC[C@@H]1[C@@H]2CC[C@]2(C)[C@@H](O)CC[C@@H]12`
Result string: 6.22

Query string: Name the reported pIC50 value associated with the molecule `COc1cc2c(cc1O)CC[C@@H]1[C@@H]2CC[C@]2(C)C(=O)/C(=C/c3cc(F)cc(F)c3)C[C@@H]12`
Result string: 5.29

Query string: Which pIC50 value belongs to `C[C@]12CC[C@@H]3c4cc(C(=O)/C=C/c5ccccc5Cl)c(O)cc4CC[C@H]3[C@@H]1CC[C@@H]2O` ?
Result string: 4.95

Query string: What pIC50 value was documented for this molecule, `COc1cc2c(cc1O)CC[C@@H]1[C@@H]2CC[C@]2(C)C(=O)/C(=C/c3cccc(OC)c3OC)C[C@@H]12` ?
Result string: 5.07

---

Hi there, I'd appreciate the recorded pIC50 for every entry that follows.
system: HEK293; assay: Cytotoxicity against human HEK293 cells measured after 48 to 72 hrs by MTT assay; type: cell-based
Units for pIC50: none; it is -log10 of a concentration expressed in mol/L.

Query string: What does the data say about its pIC50? Entry: `COc1cc2c(cc1O)CC[C@@H]1[C@@H]2CC[C@]2(C)C(=O)/C(=C/c3cccc(Cl)c3)C[C@@H]12`
Result string: 4.11

Query string: # input compound: `COc1cccc(/C=C/C(=O)c2cc3c(cc2O)CC[C@@H]2[C@@H]3CC[C@]3(C)[C@@H](O)CC[C@@H]23)c1` ; wanted: its pIC50
Result string: 4.88

Query string: Data request, read-out pIC50, for `COc1cc2c(cc1O)CC[C@@H]1[C@@H]2CC[C@]2(C)C(=O)/C(=C/c3ccc(Br)cc3)C[C@@H]12`
Result string: 4.31

Query string: Request the reported pIC50 associated with `COc1cc2c(cc1O)CC[C@@H]1[C@@H]2CC[C@]2(C)C(=O)/C(=C/c3cccc(OC)c3OC)C[C@@H]12`
Result string: 4.29

Query string: Please report the recorded pIC50 for `COc1cc2c(cc1O)CC[C@@H]1[C@@H]2CC[C@]2(C)C(=O)/C(=C/c3ccc(F)cc3)C[C@@H]12` .
Result string: 4.06

---

Task for the reader: assign each of the following compounds its reported IC50.
tested on: HEK293; assay: Cytotoxicity against human HEK293 cells measured after 48 to 72 hrs by MTT assay; assay type: cell-based

Query string: Reported IC50 for `COc1cc2c(cc1O)CC[C@@H]1[C@@H]2CC[C@]2(C)C(=O)/C(=C/c3ccc(S(C)(=O)=O)cc3)C[C@@H]12` : what is it?
Result string: > 100 µM

Query string: Requested field: IC50. Item: `C[C@]12CC[C@@H]3c4cc(C(=O)/C=C/c5ccc(OCc6ccccc6)cc5)c(O)cc4CC[C@H]3[C@@H]1CC[C@@H]2O`
Result string: > 100 µM

Query string: Fill in the blank: the reported IC50 of `COc1cc2c(cc1O)CC[C@@H]1[C@@H]2CC[C@]2(C)C(=O)/C(=C/c3ccc(Cl)cc3)C[C@@H]12` is ____.
Result string: > 100 µM
